Target: T1, Dimeric Mouse Ang-2FD conjugated to human IgG1 (mouse (Mus musculus); human)
T1 construct: also called Mouse Ang-2FD-hFc
T1 sequence (chain, as listed by the source limits assumed): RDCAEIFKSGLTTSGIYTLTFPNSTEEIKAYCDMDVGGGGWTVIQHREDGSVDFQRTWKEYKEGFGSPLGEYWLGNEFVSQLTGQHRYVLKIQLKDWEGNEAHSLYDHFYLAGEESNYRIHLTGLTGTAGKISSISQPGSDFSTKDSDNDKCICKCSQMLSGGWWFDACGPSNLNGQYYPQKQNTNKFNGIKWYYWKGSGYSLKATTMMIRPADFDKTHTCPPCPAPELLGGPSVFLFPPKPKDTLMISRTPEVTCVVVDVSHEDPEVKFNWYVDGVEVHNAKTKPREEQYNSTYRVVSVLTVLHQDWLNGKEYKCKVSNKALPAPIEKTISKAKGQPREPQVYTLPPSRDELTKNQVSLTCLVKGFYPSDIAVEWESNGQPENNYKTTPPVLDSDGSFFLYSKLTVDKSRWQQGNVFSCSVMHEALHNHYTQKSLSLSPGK
Assay: SPR, captured Ab, RT
experimental.endpoint: pKd
The meaning of pKd here: minus log10 of the concentration in molar units.

Example entries begin here.
May I ask what pKd has been recorded for H1H696P (antibody, V domains shown) VH: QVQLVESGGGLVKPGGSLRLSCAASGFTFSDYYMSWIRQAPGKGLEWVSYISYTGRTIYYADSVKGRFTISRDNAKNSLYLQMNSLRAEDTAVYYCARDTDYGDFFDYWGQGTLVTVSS VL: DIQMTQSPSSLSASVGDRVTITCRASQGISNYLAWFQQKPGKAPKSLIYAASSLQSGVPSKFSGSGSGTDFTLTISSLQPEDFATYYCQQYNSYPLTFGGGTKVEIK ?
9.40

Please do the same for H1H728N (antibody, V domains shown) VH: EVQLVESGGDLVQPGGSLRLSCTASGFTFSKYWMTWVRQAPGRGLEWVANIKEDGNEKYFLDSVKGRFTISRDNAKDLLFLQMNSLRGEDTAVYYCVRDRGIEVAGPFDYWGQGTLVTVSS VL: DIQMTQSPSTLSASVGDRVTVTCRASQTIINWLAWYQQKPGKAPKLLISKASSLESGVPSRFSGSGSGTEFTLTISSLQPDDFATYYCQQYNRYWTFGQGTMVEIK as well.
8.24

Please do the same for H2M743N (antibody, V domains shown) VH: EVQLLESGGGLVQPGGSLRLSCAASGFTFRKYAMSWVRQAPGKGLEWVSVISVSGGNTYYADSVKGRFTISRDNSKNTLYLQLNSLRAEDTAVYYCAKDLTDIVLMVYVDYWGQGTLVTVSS VL: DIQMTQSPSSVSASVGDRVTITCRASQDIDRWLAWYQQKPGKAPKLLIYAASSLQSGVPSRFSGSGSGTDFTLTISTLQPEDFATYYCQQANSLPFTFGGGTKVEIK as well.
9.05

Please do the same for H1H730N (antibody, V domains shown) VH: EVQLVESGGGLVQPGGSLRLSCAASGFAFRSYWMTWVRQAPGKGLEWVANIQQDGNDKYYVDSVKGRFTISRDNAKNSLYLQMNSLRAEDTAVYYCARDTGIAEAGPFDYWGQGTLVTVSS VL: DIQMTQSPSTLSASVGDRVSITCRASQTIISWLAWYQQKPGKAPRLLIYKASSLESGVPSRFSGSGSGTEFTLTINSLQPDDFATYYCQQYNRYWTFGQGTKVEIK as well.
10.01

Please do the same for H1H691P (antibody, V domains shown) VH: EVQLVESGGGLVQPGRSLRLSCAASGFTFDDYAMHWVRQAPGKGLEWVSGISWNSGDIGYADSVKGRFTISRDNAKNSLYLQMNSLRAQDTALYYCAKAYGDYYYFYGMDVWGQGTTVTVS VL: EIVLTQSPGTLSLSPGERATLSCRASQSVSSSYLAWYQQKPGQAPRLLIFSASSRATGIPDRFSGSGSGTDFTLTISRLEPEDFAVYYCQQYDNSLTFGGGTKVEIK as well.
9.66

Next:
May I ask what pKd has been recorded for H1H706P (antibody, V domains shown) VH: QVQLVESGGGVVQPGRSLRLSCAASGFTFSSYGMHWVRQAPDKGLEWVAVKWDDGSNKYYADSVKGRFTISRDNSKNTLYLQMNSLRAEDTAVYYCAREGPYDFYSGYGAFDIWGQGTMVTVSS VL: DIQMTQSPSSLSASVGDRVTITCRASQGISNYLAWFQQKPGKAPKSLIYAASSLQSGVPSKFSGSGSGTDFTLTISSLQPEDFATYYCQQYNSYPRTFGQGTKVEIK ?
9.45

Please do the same for H1H724N (antibody, V domains shown) VH: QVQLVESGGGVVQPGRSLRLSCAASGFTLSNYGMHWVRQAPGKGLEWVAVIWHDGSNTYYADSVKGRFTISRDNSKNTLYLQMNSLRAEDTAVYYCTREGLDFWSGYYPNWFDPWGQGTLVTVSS VL: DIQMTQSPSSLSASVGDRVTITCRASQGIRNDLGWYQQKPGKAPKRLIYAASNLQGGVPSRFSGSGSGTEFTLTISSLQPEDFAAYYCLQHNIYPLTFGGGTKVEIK as well.
9.73

Please do the same for H1H749N (antibody, V domains shown) VH: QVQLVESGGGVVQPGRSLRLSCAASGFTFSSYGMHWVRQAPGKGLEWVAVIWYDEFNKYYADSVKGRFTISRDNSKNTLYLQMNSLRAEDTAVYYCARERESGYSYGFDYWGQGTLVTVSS VL: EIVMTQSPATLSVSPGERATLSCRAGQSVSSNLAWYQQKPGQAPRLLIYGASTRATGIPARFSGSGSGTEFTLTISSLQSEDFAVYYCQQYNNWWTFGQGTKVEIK as well.
9.75

Please do the same for H1H742N (antibody, V domains shown) VH: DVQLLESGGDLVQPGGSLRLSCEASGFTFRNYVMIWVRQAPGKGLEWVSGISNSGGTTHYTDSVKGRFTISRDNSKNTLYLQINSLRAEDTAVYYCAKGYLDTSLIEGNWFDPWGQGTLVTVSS VL: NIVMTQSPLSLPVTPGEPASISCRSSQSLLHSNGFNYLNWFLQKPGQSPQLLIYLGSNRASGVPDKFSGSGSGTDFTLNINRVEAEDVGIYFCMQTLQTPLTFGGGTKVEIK as well.
9.56

Please do the same for H1H704P (antibody, V domains shown) VH: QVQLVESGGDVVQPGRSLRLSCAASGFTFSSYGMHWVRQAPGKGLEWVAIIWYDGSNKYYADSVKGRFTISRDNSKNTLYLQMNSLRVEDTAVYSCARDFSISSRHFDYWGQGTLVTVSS VL: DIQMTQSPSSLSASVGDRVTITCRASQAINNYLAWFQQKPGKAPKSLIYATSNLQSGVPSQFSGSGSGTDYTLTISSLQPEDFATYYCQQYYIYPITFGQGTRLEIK as well.
9.32
